Tested system: MC4-R (Homo sapiens)
Sequence (P32245 whole entry): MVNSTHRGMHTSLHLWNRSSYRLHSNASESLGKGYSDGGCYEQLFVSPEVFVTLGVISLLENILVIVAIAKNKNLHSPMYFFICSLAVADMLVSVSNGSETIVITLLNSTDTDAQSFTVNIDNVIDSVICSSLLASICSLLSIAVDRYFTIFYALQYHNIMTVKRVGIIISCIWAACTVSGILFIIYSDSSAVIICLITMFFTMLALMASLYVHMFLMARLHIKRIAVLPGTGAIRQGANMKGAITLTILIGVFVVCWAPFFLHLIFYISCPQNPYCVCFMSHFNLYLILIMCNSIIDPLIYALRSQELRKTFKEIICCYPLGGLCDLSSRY
Test method notes: cAMP functional activity assay in HEK-293 cells, normal system
Format: cell-based
Design: expressed in transfected cells; host or cells: HEK-293
Conditions used: normal system; 1 μM concentration where stated
Property: functional status at MC4-R in cAMP assay

INSERT INTO results (molecule, value_reported) VALUES
  ('N=C(N)NCCC[C@H]1C(=O)N2C(CC[C@@H]2COc2ccc3ccccc3c2)N1C(=O)[C@@H](Cc1ccc(Cl)cc1Cl)NC(=O)[C@@H]1Cc2ccccc2CN1 (stereo partly drawn)', 'antagonist'),
  ('C[C@@H]1CN(C(=O)[C@H](N)Cc2ccc(Cl)cc2Cl)[C@@H](CCCNC(=N)N)CN1CCc1ccc2ccccc2c1', 'antagonist');
